System: HBV
Assay Remarks: HBV inhibition assay in HepG2.2.15 cells (extracellular HBV DNA by qPCR)
Type: cell-based
Experimental Context: Hepatitis B virus, 120 h, extracellular HBV DNA in culture supernatant by qPCR, five days after compound treatment
Documented EC50 across a set of compounds
Numeric answer only, unit nM assumed.

Solved entries (count: 6):
[[record]]
compound = "C[C@H]1Cn2ncc(S(=O)(=O)N[C@H]3CCOC3)c2CN1C(=O)Nc1ccc(F)c(Cl)c1 [Example 26]"
experimental_system = "HBV"
value_measured = 365

[[record]]
compound = "C[C@H]1Cn2ncc(OC3CCOCC3)c2CN1C(=O)Nc1ccc(F)c(Cl)c1 [Example 4]"
experimental_system = "HBV"
value_measured = 107

[[record]]
compound = "C[C@H]1Cn2ncc(S(=O)(=O)N(C)C)c2CN1C(=O)Nc1ccc(F)c(Cl)c1 [Example 24]"
experimental_system = "HBV"
value_measured = 142

[[record]]
compound = "CC1Cn2ncc(S(=O)(=O)C3CCCC3)c2CN1C(=O)Nc1ccc(F)c(Cl)c1 (stereo not shown) [Example 11]"
experimental_system = "HBV"
value_measured = 11

[[record]]
compound = "C[C@H]1Cn2ncc(S(=O)(=O)N3CCOCC3)c2CN1C(=O)Nc1cc(F)c(F)c(F)c1 [Example 32]"
experimental_system = "HBV"
value_measured = 179

[[record]]
compound = "C[C@H]1Cn2ncc(Oc3ccc(F)cn3)c2CN1C(=O)Nc1cc(F)c(F)c(F)c1 [Example 9]"
experimental_system = "HBV"
value_measured = 240


For the next question, use this compound.
Prompt: Request the reported EC50 associated with CCS(=O)(=O)N(C)c1cnn2c1CN(C(=O)Nc1cc(F)c(F)c(F)c1)[C@@H](C)C2 [Example 40]
Response: 169
